Data origin, for the record: patent US20060068468A1

- target or test system: T1, Activin A (UniProt P08476 311-426)
- T1 construct: also called ActA
- T1 sequence (looked up): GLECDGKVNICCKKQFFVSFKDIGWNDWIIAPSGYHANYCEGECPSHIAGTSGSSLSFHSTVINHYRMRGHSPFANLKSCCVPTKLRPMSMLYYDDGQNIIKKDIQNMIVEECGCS
- test name: BiaCore, ligand immobilized on CM5 chip
readout type: binding result

binder | experimental result
ActRIIB-Fc K74Y (Fc fusion, Mutation in the background ActRIIB-Fc) SGRGEAETRECIYYNANWELERTNQSGLERCEGEQDKRLHCYASWANSSGTIELVYKGCWLDDFNCYDRQECVATEENPQVYFCCCEGNFCNERFTHLPEAGGGTHTCPPCPAPELLGGPSVFLFPPKPKDTLMISRTPEVTCVVVDVSHEDPEVKFNWYVDGVEVHNAKTKPREEQYNSTYRVVSVLTVLHQDWLNGKEYKCKVSNKALPVPIEKTISKAKGQPREPQVYTLPPSREEMTKNQVSLTCLVKGFYPSDIAVEWESNGQPENNYKTTPPVLDSDGSFFLYSKLTVDKSRWQQGNVFSCSVMHEALHNHYTQKSLSLSPGK | no binding
ActRIIB-Fc D80A (Fc fusion, Mutation in the background ActRIIB-Fc) SGRGEAETRECIYYNANWELERTNQSGLERCEGEQDKRLHCYASWANSSGTIELVKKGCWLADFNCYDRQECVATEENPQVYFCCCEGNFCNERFTHLPEAGGGTHTCPPCPAPELLGGPSVFLFPPKPKDTLMISRTPEVTCVVVDVSHEDPEVKFNWYVDGVEVHNAKTKPREEQYNSTYRVVSVLTVLHQDWLNGKEYKCKVSNKALPVPIEKTISKAKGQPREPQVYTLPPSREEMTKNQVSLTCLVKGFYPSDIAVEWESNGQPENNYKTTPPVLDSDGSFFLYSKLTVDKSRWQQGNVFSCSVMHEALHNHYTQKSLSLSPGK | no binding
